tested-target: human mGluR5 (Homo sapiens, UniProt P41594)
Sequence (P41594 21-1180 isoform P41594-2 limits assumed): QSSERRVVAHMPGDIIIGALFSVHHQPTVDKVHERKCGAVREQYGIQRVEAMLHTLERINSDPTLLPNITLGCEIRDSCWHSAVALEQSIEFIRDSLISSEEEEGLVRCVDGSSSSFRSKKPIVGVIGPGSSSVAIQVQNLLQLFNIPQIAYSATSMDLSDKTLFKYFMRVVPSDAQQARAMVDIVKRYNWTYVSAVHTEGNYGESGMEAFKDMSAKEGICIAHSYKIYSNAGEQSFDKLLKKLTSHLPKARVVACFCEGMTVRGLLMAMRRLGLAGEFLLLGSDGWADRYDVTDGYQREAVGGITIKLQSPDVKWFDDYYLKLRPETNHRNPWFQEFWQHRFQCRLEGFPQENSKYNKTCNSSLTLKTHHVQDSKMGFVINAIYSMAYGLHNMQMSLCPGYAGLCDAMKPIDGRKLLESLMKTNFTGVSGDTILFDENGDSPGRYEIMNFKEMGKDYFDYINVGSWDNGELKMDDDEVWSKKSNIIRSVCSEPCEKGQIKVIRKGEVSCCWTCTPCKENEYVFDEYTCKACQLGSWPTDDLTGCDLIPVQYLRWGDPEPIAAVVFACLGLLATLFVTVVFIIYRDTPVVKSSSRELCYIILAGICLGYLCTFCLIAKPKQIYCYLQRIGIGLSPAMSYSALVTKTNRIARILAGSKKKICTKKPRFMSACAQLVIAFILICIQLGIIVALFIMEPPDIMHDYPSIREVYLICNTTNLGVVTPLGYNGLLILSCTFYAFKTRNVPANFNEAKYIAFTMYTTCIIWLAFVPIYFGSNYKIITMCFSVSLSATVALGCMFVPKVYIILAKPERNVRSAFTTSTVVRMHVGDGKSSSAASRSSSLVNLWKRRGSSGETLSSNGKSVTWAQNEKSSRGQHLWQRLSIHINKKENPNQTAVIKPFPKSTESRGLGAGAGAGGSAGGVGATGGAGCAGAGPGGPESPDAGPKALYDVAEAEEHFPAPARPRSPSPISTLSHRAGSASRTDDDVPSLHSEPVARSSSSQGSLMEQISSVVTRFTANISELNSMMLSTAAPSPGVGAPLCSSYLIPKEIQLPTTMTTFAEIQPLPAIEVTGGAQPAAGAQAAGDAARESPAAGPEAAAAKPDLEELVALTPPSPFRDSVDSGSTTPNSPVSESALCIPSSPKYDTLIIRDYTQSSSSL
assay-overview: Cell-based functional Ca2+ mobilization assay (FDSS), potentiation of glutamate EC20 response
reported-conditions: H10H cell-line; maximum % effect as percent of response to maximally effective glutamate; glutamate EC20 present; read-out: Emax (%)
quantity: Emax (%)

Worked examples follow.
In [3]: df
Out[3]:
                                   compound  recorded_number
0  CC1CCn2nc(COc3ccccc3)cc2C(=O)N1CC1CC1 (stereo not drawn)               57
1  C[C@@H]1Cn2nc(COc3ccccc3)cc2C(=O)N1CC1CCC1               76
2    O=C1c2cc(COc3ccccc3)nn2CCN1[C@H]1CCNC1               24

(I) O=C1c2cc(COc3ccccc3)nn2CCN1C1CCC1
(II) O=C1c2cc(COc3ccccc3)nn2CCN1CC1CCCCC1
(III) O=C1c2cc(COc3ccccc3)nn2CCN1C1CCOCC1
Exercise: Put these in order: smallest Emax first, largest last. Write the labels in rank order as requested.
Key: I, III, II
(I: 29%, III: 46%, II: 79%)
